B1: CLuc-FGF14 [human] / CD4-Nav1.6 C-tail-NLuc [human] (parent)
chain 1: MVKPVPLFRRTDFKLLLCNHKDLFFLRVSKLLDCFSPKSMWFLWNIFSKGTHMLQCLCGKSLKKNKNPTDPQLKGIVTRLYCRQGYYLQMHPDGALDGTKDDSTNSTLFNLIPVGLRVVAIQGVKTGLYIAMNGEGYLYPSELFTPECKFKESVFENYYVIYSSMLYRQQESGRAWFLGLNKEGQAMKGNRVKKTKPAAHFLPKPLEVAMYREPSLHDVGETVPKPGVTPSKSTSASAIMNGGKPVNKSKTT
chain 2: IVVNMYIAIILENFSVATEESADPLSEDDFETFYEIWEKFDPDATQFIEYCKLADFADALEHPLRVPKPNTIELIAMDLPMVSGDRIHCLDILFAFTKRVLGDSGELDILRQQMEERFVASNPSKVSYEPITTTLRRKQEEVSAVVLQRAYRGHLARRGFICKKTTSNKLENGGTHREKKESTPSTASLPSYDSVTKPEKEKQQRAEEGRRERAKRQKEVRESKC

variants of: B1; experiment: split-luciferase complementation assay (LCA) in HEK293 cells; settings: with CD4-Nav1.6 C-tail-NLuc [human]; EYYV peptide 50 µM present; DMSO vehicle control of the same pair = 100; read off a plot
experimental_readout: screen value (% Luminescence (RLU))

Example variants with recorded screen value (% Luminescence (RLU)):
{"columns": ["change", "experimental_readout", "recorded_measurement"],
 "data": [
  ["chain 1 Y158A V160A", "screen value (% Luminescence (RLU))", 100],
  ["chain 1 Y158N V160N", "screen value (% Luminescence (RLU))", 79],
  ["chain 1 V160A", "screen value (% Luminescence (RLU))", 93]
]}

Okay, now this variant:
chain 1 Y158A has a reported screen value (% Luminescence (RLU)) of 100
